assay: Inhibition of rat intestinal alpha-glucosidase using sucrose as substrate assessed as glucose formation incubated for 10 mins prior to substrate addition measured after 30 mins by glucose oxidase method
pIC50: −log10 of the molar value.
In this section we review reported pIC50 values for a set of compounds.
READOUT LABEL: pIC50

| COMPOUND | OBSERVED VALUE |
| --- | --- |
| CN1[C@H](CO)[C@@H](O)C[C@@H](O)[C@@H]1CO | 4.65 |
| OC[C@@H]1N[C@H](CO)[C@@H](O)[C@H](O)[C@H]1O | 4.61 |
| OC[C@H]1N[C@H](CO[C@H]2O[C@H](CO)[C@@H](O)[C@H](O)[C@H]2O)[C@H](O)[C@@H](O)[C@@H]1O | 4.41 |
| OC[C@@H]1N[C@H](CO)[C@@H](O)[C@H](O)[C@@H]1O | 4.72 |
| C[C@@H]1[C@H](O)[C@@H](O)[C@H](O)[C@@H](CO)N1C | 6.14 |
| CN1[C@H](CO[C@@H]2O[C@H](CO)[C@@H](O)[C@H](O)[C@H]2O)[C@H](O)[C@@H](O)[C@H](O)[C@H]1CO | 4.61 |
| OCCCCCCCC[C@H]1N[C@H](CO)[C@@H](O)[C@H](O)[C@H]1O | 5.26 |
| CN1[C@H](CO)[C@H](O)[C@@H](O)[C@H](O)[C@H]1CO | 7.10 |
| OC[C@H]1N[C@H](CO)[C@@H](O)[C@H](O)[C@H]1O | 7.05 |
| CN1[C@H](CO)[C@H](O)C[C@H](O)[C@H]1CO | 4.70 |
| C[C@H]1O[C@H](O[C@H]2[C@H](O)[C@@H](O)[C@@H](O[C@H]3[C@H](O)[C@@H](O)C(O)O[C@@H]3CO)O[C@@H]2CO)[C@H](O)[C@@H](O)[C@@H]1N[C@H]1C=C(CO)[C@@H](O)[C@H](O)[C@H]1O (stereo partly specified) | 6.27 |
| C[C@H]1N[C@H](CO)[C@@H](O)[C@H](O)[C@H]1O | 4.66 |
| OC[C@H]1N[C@H](CO[C@@H]2O[C@H](CO)[C@@H](O)[C@H](O)[C@H]2O)[C@H](O)[C@@H](O)[C@@H]1O | 5.37 |
| OC[C@@H](O)[C@H]1N[C@H](CO)[C@@H](O)[C@@H]1O | 6.04 |
| CCCCN1[C@H](CO[C@@H]2O[C@H](CO)[C@@H](O)[C@H](O)[C@H]2O)[C@H](O)[C@@H](O)[C@H](O)[C@H]1CO | 4.64 |
| OC[C@H]1N[C@H](CO)[C@@H](O)[C@@H](O)[C@H]1O | 4.60 |

Values compiled from ChEMBL document CHEMBL2440056.
